Known pIC50 of a selection of molecules
biological target: IGF-1R (Homo sapiens); construct: expressed in transfected cells; test: Example B-2: IGF-1R Assay (PathHunter cell lines, EC80 agonist challenge, chemiluminescent detection); format: cell-based; conditions: PathHunter cells, compound 60 minutes at 37° C., EC80 agonist 3 hours; read-out: IC50, Biological Activity against IGF-1R (Table B2)
pIC50: −log10 of the molar value.

Lab request: please report pIC50 under test system IGF-1R (Homo sapiens) for CNS(=O)(=O)c1ccc(CNc2cc(CN3C(=O)N(c4ccc(C5(C(F)(F)F)CC5)cc4)C(=O)C3(C)C)ccn2)cc1 [Compound 172]
≥ 6.30

// map CC1(C)C(=O)N(c2ccc(SC(F)(F)F)cc2)C(=O)N1Cc1ccnc(N)c1P(C)(C)=O [Compound 389] to recorded pIC50 (system: IGF-1R (Homo sapiens))
5.70 to 6.30

Under IGF-1R (Homo sapiens): pIC50 value of CC1(C)C(=O)N(c2ccc3c(c2)N(C(=O)C2CC2)CC32CC2)C(=O)N1Cc1ccnc(N[C@H]2[C@@H]3COC[C@@H]32)c1 [Compound 231] ?
≥ 6.30

* * *

target: IGF-1R (Homo sapiens, UniProt P08069); construct: expressed in transfected cells; experiment: Example B-1: IGF-1R Assay (PC3 cells stimulated with IGF1, AlphaLISA on cell lysates); type: cell-based; conditions: compound two hours, IGF1 200 ng/mL for 30 min, read-out: IC50, Biological Activity against IGF-1R (Table B1)
Sequence (P08069 31-1367): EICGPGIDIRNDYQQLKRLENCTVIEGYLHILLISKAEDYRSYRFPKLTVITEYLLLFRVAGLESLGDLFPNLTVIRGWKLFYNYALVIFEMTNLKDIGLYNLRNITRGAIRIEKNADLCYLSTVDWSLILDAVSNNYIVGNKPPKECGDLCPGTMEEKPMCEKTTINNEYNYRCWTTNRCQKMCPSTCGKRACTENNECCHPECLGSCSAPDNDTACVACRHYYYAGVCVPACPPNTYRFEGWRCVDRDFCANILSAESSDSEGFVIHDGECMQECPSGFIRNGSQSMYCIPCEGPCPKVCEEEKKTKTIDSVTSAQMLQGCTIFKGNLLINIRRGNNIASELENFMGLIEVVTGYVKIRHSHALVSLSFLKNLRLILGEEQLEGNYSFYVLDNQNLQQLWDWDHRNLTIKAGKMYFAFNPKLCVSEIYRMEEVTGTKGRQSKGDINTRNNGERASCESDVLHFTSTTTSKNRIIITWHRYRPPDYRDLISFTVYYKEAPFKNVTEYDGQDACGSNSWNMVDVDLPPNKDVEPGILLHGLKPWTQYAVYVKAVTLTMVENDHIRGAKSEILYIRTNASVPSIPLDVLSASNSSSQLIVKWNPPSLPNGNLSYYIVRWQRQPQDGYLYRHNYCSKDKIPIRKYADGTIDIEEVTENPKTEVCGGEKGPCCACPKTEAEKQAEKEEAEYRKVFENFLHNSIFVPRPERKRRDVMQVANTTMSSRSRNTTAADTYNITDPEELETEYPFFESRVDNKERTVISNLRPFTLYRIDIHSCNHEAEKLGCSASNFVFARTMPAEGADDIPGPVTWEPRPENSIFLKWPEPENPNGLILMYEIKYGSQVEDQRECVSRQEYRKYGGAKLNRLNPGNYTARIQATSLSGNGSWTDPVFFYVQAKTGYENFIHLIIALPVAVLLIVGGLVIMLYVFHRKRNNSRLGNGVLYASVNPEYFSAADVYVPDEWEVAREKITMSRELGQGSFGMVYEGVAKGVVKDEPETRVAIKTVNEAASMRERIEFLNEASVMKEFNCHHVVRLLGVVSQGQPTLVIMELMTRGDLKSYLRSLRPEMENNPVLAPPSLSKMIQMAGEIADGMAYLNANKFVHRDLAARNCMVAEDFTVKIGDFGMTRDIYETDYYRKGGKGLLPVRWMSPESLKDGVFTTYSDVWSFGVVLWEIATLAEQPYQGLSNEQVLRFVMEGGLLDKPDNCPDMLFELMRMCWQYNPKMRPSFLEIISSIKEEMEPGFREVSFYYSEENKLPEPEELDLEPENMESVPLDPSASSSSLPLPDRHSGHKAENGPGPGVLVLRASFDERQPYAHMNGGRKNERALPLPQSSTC
Result Type: IC50

// solved cases for IC50 follow
| Compound | Result |
| --- | --- |
| CC1(C)C(=O)N(c2ccc(SC(F)(F)F)cc2)C(=O)N1Cc1ccnc(NC(=O)NC2CCOC2)c1 (centres unmarked) | ≤ 500 nM |
| COC[C@@H](C)Nc1cc(CN2C(=O)N(c3ccc(C(C)(C)C)cc3)C(=O)C2(C)C)ccn1 | ≤ 500 nM |
| CC1(C)C(=O)N(c2ccc(C3(C#N)CCC3)cc2)C(=O)N1Cc1ccnc(NC2CCOCC2)c1 | ≤ 500 nM |
| Cc1ccccc1NC(=O)Nc1cc(CN2C(=O)N(c3ccc(SC(F)(F)F)cc3)C(=O)C2(C)C)ccn1 | ≤ 500 nM |
| CC(C)[C@H]1C(=O)N(c2ccc(S(=O)(=O)C(F)(F)F)cc2)C(=O)N1Cc1ccnc(N)c1 | 2000 to 10000 nM |
| CC1(C)C(=O)N(c2ccc(SC(F)(F)F)cc2)C(=O)N1Cc1ccnc(NCC(F)(F)F)c1 | 500 to 2000 nM |
| CC1(C)C(=O)N(c2ccc(C3(C(F)(F)F)CC3)cc2)C(=O)N1Cc1ccnc(N[C@H]2CCOC2)c1 | ≤ 500 nM |

Next:
Which IC50 is listed for CC1(C)C(=O)N(c2ccc(C3(C(F)(F)F)CC3)cc2)C(=O)N1Cc1ccnc(NCC(F)F)c1 ?
≤ 500 nM

* * *

Listed next: entries and their corresponding IC50.
biological target: IGF-1R (Homo sapiens, UniProt P08069); construct: expressed in transfected cells; assay: Example B-1: IGF-1R Assay (PC3 cells stimulated with IGF1, AlphaLISA on cell lysates); assay type: cell-based; details: compound two hours, IGF1 200 ng/mL for 30 min, read-out: IC50, Biological Activity against IGF-1R (Table B1)

These recorded examples may help you get a feel for the data.
| Structure String | Study System | Result |
| --- | --- | --- |
| CC(C)Nc1cc(CN2C(=O)N(c3ccc4c(C5CC5)n[nH]c4c3)C(=O)C2(C)C)ccn1 | IGF-1R (Homo sapiens, UniProt P08069) | 2 to 10 µM |
| CC(C)Nc1cc(CN2C(=O)N(c3ccc(C4(C)CC4)cc3)C(=O)C2(C)C)ccn1 | IGF-1R (Homo sapiens, UniProt P08069) | ≤ 0.5 µM |

Now consider a different molecule.
Endpoint output: IC50 of CC(C)[C@H]1C(=O)N(c2ccc(SC(F)(F)F)cc2)C(=O)N1Cc1ccnc(N)c1 . Value?
> 10 µM
